# Tested on: ddy strain of male mice
# experimental_protocol: Acute toxicity (oral, general symptom and death observed for 7 days)
# Format: in vivo
# measurement_parameters: 1000 mg/kg oral, 7 days
In this section, each of the molecules is paired with its reported Acute toxicity, death number of mice/number of mice tested.

| molecule | experimental_value |
| --- | --- |
| CCN(C(=O)NC)C(=O)Nc1ccccc1 [Compound No. 21, 1-Methyl-3-ethyl-5-phenylbiuret] | 1/4 |

Asked: If you can, please state the reported Acute toxicity, death number of mice/number of mice tested value of CN(C(=O)NCCC#N)C(=O)Nc1ccccc1 [compound 54, 1-(2-Cyanoethyl)-3-methyl-5-phenylbiuret] .
Given back: 0/4

Asked: And what about the molecule CCNC(=O)NC(=O)Nc1ccc(Cl)c(Cl)c1 [compound 27, 1-Ethyl-5-(3,4-dichlorophenyl)biuret] ?
Given back: 0/4

Asked: Now try CCNC(=O)N(C)C(=O)Nc1ccc(OC)cc1 [compound 35] .
Given back: 0/4

Asked: Likewise for CNC(=O)N(C)C(=O)Nc1ccccc1C(F)(F)F [compound 7] ?
Given back: 0/4

Asked: # iterate: CNC(=O)N(C)C(=O)Nc1ccccc1C(=O)O [compound 10, 1,3-Dimethyl-5-(2-carboxyphenyl)biuret]
Given back: 1/4

Asked: Moving on to COCCNC(=O)N(C)C(=O)Nc1ccccc1 [compound 59]
Given back: 1/4

Asked: Query CN(C(=O)NCC(C)(C)O)C(=O)Nc1ccccc1 [Compound No. 57] next
Given back: 0/4

Asked: Same question for CCNC(=O)N(C)C(=O)Nc1ccc(C)cc1 [compound 38] please.
Given back: 0/4

Asked: Continue with CNC(=O)N(C)C(=O)NCc1ccccc1 [compound 12]
Given back: 4/4

Asked: What would you report for CCNC(=O)NC(=O)Nc1ccccn1 [compound 30, 1-Ethyl-5-(2-pyridyl)biuret] ?
Given back: 0/4

Asked: Now give it for CNC(=O)N(C)C(=O)Nc1nccs1 [compound 20] too.
Given back: 3/4

Asked: Same again, this time with CONC(=O)N(C)C(=O)Nc1ccccc1 [compound 63, 1-Methoxy-3-methyl-5-phenylbiuret]
Given back: 0/4

###

# Test system: carrageenin-induced inflammation of the hindpaw of the rat
# experimental_protocol: Anti-inflammatory activity, acute carrageenin-induced inflammatory test
# Format: in vivo, rats (Wistar strain, male)
# measurement_parameters: Rattus norvegicus, po, 3 h, read-out: Anti-inflammatory activity, inflammation inhibitory ratio
property_name: inhibition in vivo at 100 mg/kg
Just so you know, I need the unit written after the number.

Check out these entries, answers already filled in.
| molecule | inhibition in vivo at 100 mg/kg |
| --- | --- |
| CONC(=O)N(C)C(=O)Nc1ccccc1 [compound 63, 1-Methoxy-3-methyl-5-phenylbiuret] | 50% |
| CNC(=O)NC(=O)Nc1ccccc1 [Compound No. 2] | 28% |

Here is another molecule to look at.
Asked: # query: inhibition in vivo at 100 mg/kg of entry CNC(=O)N(C)C(=O)NCc1ccccc1 [compound 12]
Given back: 47%

###

# Test system: ddy strain of male mice
# experimental_protocol: Acute toxicity (oral, general symptom and death observed for 7 days)
# Format: in vivo
# measurement_parameters: 2000 mg/kg oral, 7 days
Entries and their measured Acute toxicity, death number of mice/number of mice tested follow.

See these solved cases before continuing.
| structure_smiles_string | experimental_value |
| --- | --- |
| CCCNC(=O)N(C)C(=O)Nc1ccccc1 | 0/4 |
| CCNC(=O)N(C)C(=O)Nc1ccc(N(C)C)cc1 | 4/4 |
| CN(C(N)=O)C(=O)Nc1ccccc1 | 2/4 |

Asked: Recorded Acute toxicity, death number of mice/number of mice tested for CNC(=O)N(C)C(=O)Nc1ccc(CC(=O)O)cc1 , please?
Given back: 0/4

Asked: Follow-up item: CCNC(=O)NC(=O)Nc1cccc(Cl)c1
Given back: 0/4

Asked: Also CN(C(=O)NCCCl)C(=O)Nc1ccccc1 ?
Given back: 0/4

Asked: Similarly, CC(C)CNC(=O)N(C)C(=O)Nc1ccccc1 ?
Given back: 0/4

Asked: Okay, and CNC(=O)N(C)C(=O)Nc1cc(C)ccn1 ?
Given back: 3/4

Asked: What do you have for CC(=O)NC(=O)N(C)C(=O)Nc1ccccc1 ?
Given back: 0/4

###

# Test system: carrageenin-induced inflammation of the hindpaw of the rat
# experimental_protocol: Anti-inflammatory activity, acute carrageenin-induced inflammatory test
# Format: in vivo, rats (Wistar strain, male)
# measurement_parameters: Rattus norvegicus, po, 3 h, read-out: Anti-inflammatory activity, inflammation inhibitory ratio
// values below are reported inhibition in vivo at 100 mg/kg
A number alone suffices; assume %.

Sample answers from the record:
| molecule | inhibition in vivo at 100 mg/kg, % |
| --- | --- |
| CC(C)NC(=O)N(C)C(=O)Nc1ccccc1 | 51 |
| CN(C(=O)NCCCl)C(=O)Nc1ccccc1 | 40 |
| CCNC(=O)N(C)C(=O)Nc1ccc(OC)c(OC)c1 | 23 |
| CCC(C)NC(=O)N(C)C(=O)Nc1ccccc1 (stereo not drawn) | 47 |
| C=CCNC(=O)NC(=O)Nc1ccccc1 | 33 |

Asked: Sample CCNC(=O)N(C)C(=O)Nc1ccc(N(C)C)cc1 — what was its inhibition in vivo at 100 mg/kg?
Given back: 30

###

# System: ddy strain of male mice
# experimental_protocol: Acute toxicity (oral, general symptom and death observed for 7 days)
# Type: in vivo
# measurement_parameters: 2000 mg/kg oral, 7 days
Measured Acute toxicity, death number of mice/number of mice tested values are reported for all entries that follow.

Worked cases, answers included:
| structure_smiles_string | study_system | experimental_value |
| --- | --- | --- |
| CNC(=O)N(C)C(=O)Nc1ccccc1Cl | ddy strain of male mice | 0/4 |
| CCNC(=O)NC(=O)Nc1ccc(Cl)c(Cl)c1 | ddy strain of male mice | 1/4 |
| CCCCNC(=O)NC(=O)NCc1ccccc1 | ddy strain of male mice | 0/4 |

Lab note: next compound to report on.
Asked: Return reported Acute toxicity, death number of mice/number of mice tested; argument: CCNC(=O)N(C)C(=O)Nc1ccc(C)c(C)c1
Given back: 0/4

###

# Tested on: ddy strain of male mice
# experimental_protocol: Acute toxicity (oral, general symptom and death observed for 7 days)
# Type: in vivo
# measurement_parameters: 2000 mg/kg oral, 7 days
property_name: Acute toxicity, death number of mice/number of mice tested

| structure_smiles_string | study_system | experimental_value |
| --- | --- | --- |
| CNC(=O)N(C(=O)Nc1ccccc1)c1ccccc1 | ddy strain of male mice | 0/4 |
| CCNC(=O)NC(=O)Nc1ccccc1Cl | ddy strain of male mice | 0/4 |

Asked: Which Acute toxicity, death number of mice/number of mice tested value is on record for CCCNC(=O)NC(=O)NCc1ccccc1 ?
Given back: 0/4

Asked: Check CNC(=O)N(C)C(=O)Nc1ccccc1C(=O)O too.
Given back: 4/4

Asked: Same question, CCN(C(=O)NC)C(=O)Nc1ccccc1 this time
Given back: 3/4

Asked: // same read-out, input: CCCCCNC(=O)N(C)C(=O)Nc1ccccc1
Given back: 0/4

Asked: Likewise for CN(C(=O)NCC(=O)O)C(=O)Nc1ccccc1 ?
Given back: 0/4

Asked: Now try CCCCNC(=O)N(C)C(=O)Nc1ccccc1 .
Given back: 0/4

###

Listing of entries alongside the reported Acute toxicity, death number of mice/number of mice tested.
# System: ddy strain of male mice
# experimental_protocol: Acute toxicity (oral, general symptom and death observed for 7 days)
# Format: in vivo
# measurement_parameters: 1000 mg/kg oral, 7 days

| compound | experimental_value |
| --- | --- |
| CN(C(=O)NO)C(=O)Nc1ccccc1 [compound 62, 1-Hydroxy-3-methyl-5-phenylbiuret] | 0/4 |
| CNC(=O)N(C)C(=O)Nc1cc(C)ccn1 | 0/4 |
| CNC(=O)N(C)C(=O)NCc1ccccn1 | 0/4 |
| CN(C)CCNC(=O)N(C)C(=O)Nc1ccccc1 | 3/4 |
| CCNC(=O)N(C)C(=O)Nc1ccc(F)cc1 | 2/4 |
| CCNC(=O)N(C)C(=O)Nc1ccc(N(C)C)cc1 | 0/4 |

Asked: // lookup Acute toxicity, death number of mice/number of mice tested for CCNC(=O)NC(=O)NCc1ccccc1
Given back: 0/4

Asked: Next: C=CCNC(=O)N(C)C(=O)Nc1ccccc1
Given back: 2/4

Asked: Can you handle CNC(=O)NC(=O)Nc1ccccc1 next?
Given back: 4/4

###

Reported inhibition in vivo at 100 mg/kg by item:
# System: carrageenin-induced inflammation of the hindpaw of the rat
# experimental_protocol: Anti-inflammatory activity, acute carrageenin-induced inflammatory test
# Type: in vivo, rats (Wistar strain, male)
# measurement_parameters: Rattus norvegicus, po, 3 h, read-out: Anti-inflammatory activity, inflammation inhibitory ratio
# number only, unit % dropped from output

| compound | study_system | inhibition in vivo at 100 mg/kg / % |
| --- | --- | --- |
| CCNC(=O)N(C)C(=O)Nc1cccs1 [compound 40] | carrageenin-induced inflammation of the hindpaw of the rat | 24 |
| CNC(=O)N(C)C(=O)Nc1cc(C)ccn1 [compound 17] | carrageenin-induced inflammation of the hindpaw of the rat | 33 |

Asked: Value lookup for inhibition in vivo at 100 mg/kg; key = CNC(=O)N(C)C(=O)Nc1ccc(Cl)cc1 [compound 6]
Given back: 43

Asked: Quick one: C=CCNC(=O)N(C)C(=O)Nc1ccccc1 [Compound No. 45]
Given back: 59

Asked: Moving on to CCNC(=O)NC(=O)Nc1ccccn1 [compound 30, 1-Ethyl-5-(2-pyridyl)biuret]
Given back: 30
